# TESTED ON: UniProtKB P35372
# PROTOCOL DESCRIPTION: Agonist activity at human mu opioid receptor transfected in CHO cells assessed as stimulation of [35S]GTPgammaS binding after 60 mins by scintillation counting analysis relative to control
# Type: functional, cell-based
Each item that follows carries a reported Emax.

{"SMILES RECORD": "COc1ccc2c(c1)[C@]13CCN(CC4CC4)[C@H](C2)[C@@H]1Cc1sc(N)nc1C3", "Emax / %": 24}
{"SMILES RECORD": "CNc1nc2c(s1)C[C@H]1[C@H]3Cc4ccc(O)cc4[C@@]1(CCN3CC1CC1)C2", "Emax / %": 25}
{"SMILES RECORD": "COc1ccc2c(c1)[C@]13CCN(CC4CC4)[C@H](C2)[C@@H]1Cc1sc(NC(C)=O)nc1C3", "Emax / %": 47}
{"SMILES RECORD": "CNc1nc2c(s1)C[C@H]1[C@H]3Cc4ccc(OC)cc4[C@@]1(CCN3CC1CC1)C2", "Emax / %": 28}

====

Each item that follows carries a reported Imax.
# TESTED ON: Mu-type opioid receptor (Homo sapiens)
# Sequence (P35372 whole entry): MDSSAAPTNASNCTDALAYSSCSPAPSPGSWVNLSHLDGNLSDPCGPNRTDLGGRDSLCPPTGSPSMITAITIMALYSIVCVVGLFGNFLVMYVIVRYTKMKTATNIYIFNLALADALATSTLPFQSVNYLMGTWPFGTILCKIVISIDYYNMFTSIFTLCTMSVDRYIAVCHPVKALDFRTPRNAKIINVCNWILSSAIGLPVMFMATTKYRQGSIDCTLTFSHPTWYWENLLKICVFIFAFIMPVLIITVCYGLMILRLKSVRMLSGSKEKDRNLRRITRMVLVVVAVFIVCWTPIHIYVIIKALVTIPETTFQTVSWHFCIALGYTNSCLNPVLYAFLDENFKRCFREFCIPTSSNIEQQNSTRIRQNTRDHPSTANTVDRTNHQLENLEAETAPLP
# PROTOCOL DESCRIPTION: Antagonist activity at human mu opioid receptor transfected in CHO cells assessed as inhibition of DAMGO-induced [35S]GTPgammaS binding after 60 mins by scintillation counting analysis relative to control
# Type: functional, cell-based

{"SMILES RECORD": "COc1ccc2c(c1)[C@]13CCN(CC4CC4)[C@H](C2)[C@@H]1Cc1sc(NC(C)=O)nc1C3", "UNIT TEXT": "%", "Imax": 60}
{"SMILES RECORD": "COc1ccc2c(c1)[C@]13CCN(CC4CC4)[C@H](C2)[C@@H]1Cc1sc(N)nc1C3", "UNIT TEXT": "%", "Imax": 69}
{"SMILES RECORD": "CNc1nc2c(s1)C[C@H]1[C@H]3Cc4ccc(OC)cc4[C@@]1(CCN3CC1CC1)C2", "UNIT TEXT": "%", "Imax": 76}
{"SMILES RECORD": "CNc1nc2c(s1)C[C@H]1[C@H]3Cc4ccc(O)cc4[C@@]1(CCN3CC1CC1)C2", "UNIT TEXT": "%", "Imax": 76}

====

# Species: Homo sapiens
# PROTOCOL DESCRIPTION: Selectivity ratio of Ki for human mu opioid receptor to Ki for human kappa opioid receptor
Each item that follows carries a reported Ratio Ki.

{"SMILES RECORD": "COc1ccc2c(c1)[C@]13CCN(CC4CC4)[C@H](C2)[C@@H]1Cc1sc(NC(C)=O)nc1C3", "Ratio Ki": 0.73}
{"SMILES RECORD": "COc1ccc2c(c1)[C@]13CCN(CC4CC4)[C@H](C2)[C@@H]1Cc1sc(N)nc1C3", "Ratio Ki": 3.5}
{"SMILES RECORD": "CNc1nc2c(s1)C[C@H]1[C@H]3Cc4ccc(OC)cc4[C@@]1(CCN3CC1CC1)C2", "Ratio Ki": 2.7}
{"SMILES RECORD": "CNc1nc2c(s1)C[C@H]1[C@H]3Cc4ccc(O)cc4[C@@]1(CCN3CC1CC1)C2", "Ratio Ki": 1.7}

====

# TESTED ON: Kappa-type opioid receptor (Homo sapiens, UniProt P41145)
# Sequence (P41145 whole entry): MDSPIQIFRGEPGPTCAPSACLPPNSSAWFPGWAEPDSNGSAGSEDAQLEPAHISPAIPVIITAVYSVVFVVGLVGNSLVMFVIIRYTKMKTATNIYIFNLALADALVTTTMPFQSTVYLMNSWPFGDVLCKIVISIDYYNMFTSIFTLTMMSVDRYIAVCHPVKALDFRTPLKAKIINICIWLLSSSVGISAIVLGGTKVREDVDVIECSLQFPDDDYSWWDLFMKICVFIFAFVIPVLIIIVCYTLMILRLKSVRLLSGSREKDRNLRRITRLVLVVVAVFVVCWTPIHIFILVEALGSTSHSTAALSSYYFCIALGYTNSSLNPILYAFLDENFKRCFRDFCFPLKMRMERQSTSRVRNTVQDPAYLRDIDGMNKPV
# PROTOCOL DESCRIPTION: Displacement of [3H]-U69593 from human kappa opioid receptor transfected in CHO cells after 60 mins
pKi: −log10 of the molar value.

{"SMILES RECORD": "COc1ccc2c(c1)[C@]13CCN(CC4CC4)[C@H](C2)[C@@H]1Cc1sc(NC(C)=O)nc1C3", "pKi": 8.05}
{"SMILES RECORD": "COc1ccc2c(c1)[C@]13CCN(CC4CC4)[C@H](C2)[C@@H]1Cc1sc(N)nc1C3", "pKi": 8.72}
{"SMILES RECORD": "CNc1nc2c(s1)C[C@H]1[C@H]3Cc4ccc(O)cc4[C@@]1(CCN3CC1CC1)C2", "pKi": 10.08}
{"SMILES RECORD": "CNc1nc2c(s1)C[C@H]1[C@H]3Cc4ccc(OC)cc4[C@@]1(CCN3CC1CC1)C2", "pKi": 8.44}

====

# TESTED ON: Kappa-type opioid receptor (Homo sapiens, UniProt P41145)
# PROTOCOL DESCRIPTION: Agonist activity at human kappa opioid receptor transfected in CHO cells assessed as stimulation of [35S]GTPgammaS binding after 60 mins by scintillation counting analysis relative to control
# Format: functional, cell-based
Each item that follows carries a reported Emax.
PARAMETER: Emax (%)

{"SMILES RECORD": "COc1ccc2c(c1)[C@]13CCN(CC4CC4)[C@H](C2)[C@@H]1Cc1sc(N)nc1C3", "PARAMETER": "Emax", "MEASURED NUMBER": 140}
{"SMILES RECORD": "COc1ccc2c(c1)[C@]13CCN(CC4CC4)[C@H](C2)[C@@H]1Cc1sc(NC(C)=O)nc1C3", "PARAMETER": "Emax", "MEASURED NUMBER": 120}
{"SMILES RECORD": "CNc1nc2c(s1)C[C@H]1[C@H]3Cc4ccc(OC)cc4[C@@]1(CCN3CC1CC1)C2", "PARAMETER": "Emax", "MEASURED NUMBER": 140}
{"SMILES RECORD": "Nc1nc2c(s1)C[C@H]1[C@H]3Cc4ccc(O)cc4[C@@]1(CCN3CC1CC1)C2", "PARAMETER": "Emax", "MEASURED NUMBER": 59}
{"SMILES RECORD": "CNc1nc2c(s1)C[C@H]1[C@H]3Cc4ccc(O)cc4[C@@]1(CCN3CC1CC1)C2", "PARAMETER": "Emax", "MEASURED NUMBER": 85}

====

# TESTED ON: Delta-type opioid receptor (Homo sapiens, UniProt P41143)
# Sequence (P41143 whole entry): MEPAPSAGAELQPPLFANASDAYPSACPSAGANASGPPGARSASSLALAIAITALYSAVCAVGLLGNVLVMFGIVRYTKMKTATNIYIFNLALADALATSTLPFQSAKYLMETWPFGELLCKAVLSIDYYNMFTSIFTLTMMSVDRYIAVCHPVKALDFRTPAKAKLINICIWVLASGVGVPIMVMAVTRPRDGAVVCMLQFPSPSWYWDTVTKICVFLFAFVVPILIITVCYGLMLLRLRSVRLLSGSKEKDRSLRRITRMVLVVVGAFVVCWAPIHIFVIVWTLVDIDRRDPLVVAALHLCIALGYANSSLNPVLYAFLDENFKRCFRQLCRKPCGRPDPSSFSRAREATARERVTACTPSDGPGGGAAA
# PROTOCOL DESCRIPTION: Displacement of [3H]-naltrindole from human delta opioid receptor transfected in CHO cells after 3 hrs

{"SMILES RECORD": "COc1ccc2c(c1)[C@]13CCN(CC4CC4)[C@H](C2)[C@@H]1Cc1sc(NC(C)=O)nc1C3", "TESTED ON": "Delta-type opioid receptor (Homo sapiens, UniProt P41143)", "UNIT TEXT": "nM", "Ki": 4.6}
{"SMILES RECORD": "CNc1nc2c(s1)C[C@H]1[C@H]3Cc4ccc(O)cc4[C@@]1(CCN3CC1CC1)C2", "TESTED ON": "Delta-type opioid receptor (Homo sapiens, UniProt P41143)", "UNIT TEXT": "nM", "Ki": 0.43}
{"SMILES RECORD": "COc1ccc2c(c1)[C@]13CCN(CC4CC4)[C@H](C2)[C@@H]1Cc1sc(N)nc1C3", "TESTED ON": "Delta-type opioid receptor (Homo sapiens, UniProt P41143)", "UNIT TEXT": "nM", "Ki": 13}
{"SMILES RECORD": "CNc1nc2c(s1)C[C@H]1[C@H]3Cc4ccc(OC)cc4[C@@]1(CCN3CC1CC1)C2", "TESTED ON": "Delta-type opioid receptor (Homo sapiens, UniProt P41143)", "UNIT TEXT": "nM", "Ki": 1.6}

====

# Organism: Homo sapiens
# PROTOCOL DESCRIPTION: Selectivity ratio of Ki for human delta opioid receptor to Ki for human kappa opioid receptor
Each item that follows carries a reported Ratio Ki.

{"SMILES RECORD": "CNc1nc2c(s1)C[C@H]1[C@H]3Cc4ccc(O)cc4[C@@]1(CCN3CC1CC1)C2", "Ratio Ki": 5.1}
{"SMILES RECORD": "CNc1nc2c(s1)C[C@H]1[C@H]3Cc4ccc(OC)cc4[C@@]1(CCN3CC1CC1)C2", "Ratio Ki": 0.44}
{"SMILES RECORD": "COc1ccc2c(c1)[C@]13CCN(CC4CC4)[C@H](C2)[C@@H]1Cc1sc(N)nc1C3", "Ratio Ki": 6.8}
{"SMILES RECORD": "COc1ccc2c(c1)[C@]13CCN(CC4CC4)[C@H](C2)[C@@H]1Cc1sc(NC(C)=O)nc1C3", "Ratio Ki": 0.51}

====

Each item that follows carries a reported IC50.
# TESTED ON: Mu-type opioid receptor (Homo sapiens)
# PROTOCOL DESCRIPTION: Antagonist activity at human mu opioid receptor transfected in CHO cells assessed as inhibition of DAMGO-induced [35S]GTPgammaS binding after 60 mins by scintillation counting analysis

{"SMILES RECORD": "COc1ccc2c(c1)[C@]13CCN(CC4CC4)[C@H](C2)[C@@H]1Cc1sc(NC(C)=O)nc1C3", "UNIT TEXT": "nM", "IC50": 500}
{"SMILES RECORD": "CNc1nc2c(s1)C[C@H]1[C@H]3Cc4ccc(O)cc4[C@@]1(CCN3CC1CC1)C2", "UNIT TEXT": "nM", "IC50": 2.5}
{"SMILES RECORD": "CNc1nc2c(s1)C[C@H]1[C@H]3Cc4ccc(OC)cc4[C@@]1(CCN3CC1CC1)C2", "UNIT TEXT": "nM", "IC50": 650}
{"SMILES RECORD": "COc1ccc2c(c1)[C@]13CCN(CC4CC4)[C@H](C2)[C@@H]1Cc1sc(N)nc1C3", "UNIT TEXT": "nM", "IC50": 640}
